From: paper PMC8119466

tested on: recombinant PRL-1 (Homo sapiens, UniProt Q93096)
Construct: 6xHis (N, cleaved yes); made in house; host or cells: E. coli One Shot BL21 Star
Sequence (Q93096 whole entry): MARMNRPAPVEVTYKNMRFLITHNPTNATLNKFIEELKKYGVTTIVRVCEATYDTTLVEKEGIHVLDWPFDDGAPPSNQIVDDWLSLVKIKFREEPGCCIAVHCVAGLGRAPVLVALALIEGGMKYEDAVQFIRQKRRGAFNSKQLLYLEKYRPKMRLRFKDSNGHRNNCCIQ
test: In vitro phosphatase assay (DiFMUP hydrolysis), PRL-1; also: test concentration or dose not given here
Type: biochemical
measurement context: FDA-approved drug screen; compared to DMSO
value kind: % Phosphatase Activity (compared to DMSO) PRL-1 (%)
Numbers only, in %.

molecule | endpoint unit | readout value
Cc1nc(-c2ccc(OCC(C)C)c(C#N)c2)sc1C(=O)O [Febuxostat] | % | 95

Would you be so kind as to report % Phosphatase Activity (compared to DMSO) PRL-1 for each listed record?
1. CNCCc1ccccn1.Cl.Cl [Betahistine 2HCl]
2. N[C@@H](Cc1cc(I)c(Oc2cc(I)c(O)c(I)c2)c(I)c1)C(=O)O [L-Thyroxine]
3. CCCCNc1cc(C(=O)O)cc(S(N)(=O)=O)c1Oc1ccccc1 [Bumetanide]
4. C[C@@H](O[C@H]1OCCN(Cc2n[nH]c(=O)[nH]2)[C@H]1c1ccc(F)cc1)c1cc(C(F)(F)F)cc(C(F)(F)F)c1 [Aprepitant]
5. NC(=O)c1cccnc1 [Nicotinamide (Vitamin B3)]
6. CCN1CCN(C(=O)N[C@@H](C(=O)N[C@@H]2C(=O)N3[C@@H]2SC(C)(C)[C@@H]3C(=O)O)c2ccccc2)C(=O)C1=O [Piperacillin Sodium]
7. C[N+](C)(CCOc1ccccc1)Cc1ccccc1.O=C([O-])c1cc2ccccc2cc1O [Bephenium Hydroxynaphthoate]

### Response
[93, 79, 123, 104, 88, 86, 108]

Would you be so kind as to report % Phosphatase Activity (compared to DMSO) PRL-1 for each listed record?
1. CC(=O)OCC1=C(C(=O)O)N2C(=O)[C@@H](NC(=O)Cc3cccs3)[C@H]2SC1 [Cephalothin]
2. Cl.NCC1(CC(=O)O)CCCCC1 [Gabapentin HCl]
3. CCCCCCOC(=O)N=C(N)c1ccc(NCc2nc3cc(C(=O)N(CCC(=O)OCC)c4ccccn4)ccc3n2C)cc1 [Dabigatran Etexilate]
4. CC[C@H](C)C(=O)O[C@H]1C[C@@H](C)C=C2C=C[C@H](C)[C@H](CC[C@@H]3C[C@@H](O)CC(=O)O3)[C@H]21 [Lovastatin]
5. COc1cc(OC)c(/C=C/S(=O)(=O)Cc2ccc(OC)c(NCC(=O)O)c2)c(OC)c1 [Rigosertib (ON-01910)]
6. Nc1ccccc1NC(=O)c1ccc(CNc2nccc(-c3cccnc3)n2)cc1 [Mocetinostat (MGCD0103)]
7. NC(=O)CCC(N)C(=O)O (stereo in doubt) [D-glutamine]
8. CN1C(C(=O)Nc2ccccn2)=C(O)c2ccccc2S1(=O)=O [Piroxicam]

### Response
1: 97; 2: 99; 3: 121; 4: 89; 5: 95; 6: 98; 7: 96; 8: 88

* * *

tested on: recombinant PRL-2 (Homo sapiens)
Construct: 6xHis (N, cleaved yes); made in house; host or cells: E. coli One Shot BL21 Star
Sequence (Q12974 1-167): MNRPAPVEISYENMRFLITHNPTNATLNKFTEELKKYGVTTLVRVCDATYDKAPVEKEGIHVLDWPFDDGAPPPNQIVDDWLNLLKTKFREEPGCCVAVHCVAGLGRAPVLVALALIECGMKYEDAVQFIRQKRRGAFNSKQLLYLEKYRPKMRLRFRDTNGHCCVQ
test: In vitro phosphatase assay (DiFMUP hydrolysis), PRL-2;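 also: PRL-2 activity read as DiFMUP hydrolysis after 20 min at room temperature with drug, enzyme first pre-reduced at 4 °C for 20 min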
Format: biochemical
measurement context: FDA-approved drug screen; activity compared to DMSO
For each entry below, report its % Phosphatase Activity (compared to DMSO) PRL-2 value.
Numbers only, in %.

molecule | endpoint unit | readout value
Cc1cn([C@@H]2C[C@@H](O)[C@H](CO)O2)c(=O)[nH]c1=O | % | 89
CN(N=O)C(=O)N[C@H]1C(O)O[C@H](CO)[C@@H](O)[C@@H]1O (mixture of isomers) [Streptozotocin (STZ)] | % | 88
O=c1oc2cc(O)ccc2s1 | % | 124
C[C@H](Cn1cnc2c(N)ncnc21)OCP(=O)(O)O | % | 120
Cc1cc(C)nc(NS(=O)(=O)c2ccc(N)cc2)n1 | % | 105

Would you be so kind as to report % Phosphatase Activity (compared to DMSO) PRL-2 for each listed record?
1. CC[C@H]1OC(=O)C[C@@H](O)[C@H](C)[C@@H](O[C@@H]2O[C@H](C)[C@@H](O[C@H]3C[C@@](C)(O)[C@@H](O)[C@H](C)O3)[C@H](N(C)C)[C@H]2O)[C@@H](CC=O)C[C@@H](C)C(=O)/C=C/C(C)=C/[C@@H]1CO[C@@H]1O[C@H](C)[C@@H](O)[C@@H](OC)[C@H]1OC.O=C(O)C(O)C(O)C(=O)O [Tylosin tartrate]
2. COc1ccccc1N1CCN(CCCNc2cc(=O)n(C)c(=O)n2C)CC1.Cl [Urapidil HCl]

### Response
1. 93
2. 97
